Listed compounds paired with reported Efflux ratio
# System: P. aeruginosa expressing IMP-1, efflux+ (MB9798)
# Assay type: cell-based, Pseudomonas aeruginosa
# assay.context: ratio MITC95 PA_9798/MITC95 PA_9799

Answered examples (6):
**Q:** Give Efflux ratio (P. aeruginosa expressing IMP-1, efflux+ (MB9798)) of the following compound: NS(=O)(=O)c1c(S(=O)(=O)C2CNC2)ccc(-c2cncc3[nH]c(=O)[nH]c23)c1-c1nnn[nH]1
**A:** 2.00

**Q:** Request: NCCS(=O)(=O)c1ccc(-c2ccc3c(c2)CNC3=O)c(-c2nnn[nH]2)c1S(N)(=O)=O.O=C(O)C(F)(F)F
**A:** 8.00

**Q:** Request: Nc1nccc(-c2ccc(S(=O)(=O)C3CNC3)c(S(N)(=O)=O)c2-c2nn[nH]n2)c1N
**A:** 2.00

**Q:** Request: NS(=O)(=O)c1c(S(=O)(=O)C2CNC2)ccc(C2=CC3C=NNC3N=C2)c1-c1nnn[nH]1.O=C(O)C(F)(F)F (stereo not shown)
**A:** 15.99

**Q:** Request: NC[C@H](N)CS(=O)(=O)c1ccc(-c2cccc3[nH]c(N)nc23)c(-c2nnn[nH]2)c1S(N)(=O)=O
**A:** 1.00

**Q:** Request: Cc1ccc(-c2ccc(S(C)(=O)=O)c(S(N)(=O)=O)c2-c2nn[nH]n2)c2nc(N)sc12
**A:** 4.00

New cases:
**Q:** Give Efflux ratio (P. aeruginosa expressing IMP-1, efflux+ (MB9798)) of the following compound: NCCS(=O)(=O)c1ccc(-c2cccc3nc(N)[nH]c23)c(-c2nn[nH]n2)c1S(N)(=O)=O
**A:** 1.00

====

# target.under.test: VIM-1 (Pseudomonas aeruginosa (strain ATCC 15692 / DSM 22644 / CIP 104116 / JCM 14847 / LMG 12228 / 1C / PRS 101 / PAO1), UniProt A0A0F7KYQ8)
# assay.explanation: biochemical
# assay.context: CCF2-FA substrate, 2 hours at 25° C
assay.readout: log10(IC50) (log10 of the value in nM)
Annotation: log10 of IC50, nM basis.

Answered examples (2):
**Q:** GET /values?readout=log10(IC50)&item= NCCS(=O)(=O)c1ccc(-c2ccnc3nc(N)[nH]c23)c(-c2nnn[nH]2)c1S(N)(=O)=O [Example 303]
**A:** 1.05

**Q:** Request: NCCCS(=O)(=O)c1ccc(-c2cccc3sc(N)nc23)c(-c2nn[nH]n2)c1S(N)(=O)=O [Example 194]
**A:** -0.68

New cases:
**Q:** GET /values?readout=log10(IC50)&item= Nc1ccc(-c2ccc(S(=O)(=O)C3CNC3)c(S(N)(=O)=O)c2-c2nn[nH]n2)cn1 [Example 25]
**A:** -0.36

**Q:** Request: Nc1nc2ccc(-c3ccc([S+]([O-])C4CCNCC4)c(S(N)(=O)=O)c3-c3nn[nH]n3)cc2[nH]1 (stereo not shown) [Example 12]
**A:** 0.64

**Q:** Request: Nc1ccc2c(-c3ccc(S(=O)(=O)C4CNC4)c(S(N)(=O)=O)c3-c3nnn[nH]3)ccnc2n1 [Example 27]
**A:** -0.48

**Q:** Request: NCCS(=O)(=O)c1ccc(-c2ccc3oc(N)nc3c2)c(-c2nn[nH]n2)c1S(N)(=O)=O [Example 77]
**A:** -0.41

**Q:** Request: Nc1n[nH]c2c(-c3ccc(S(=O)(=O)C4CNC4)c(S(N)(=O)=O)c3-c3nn[nH]n3)cccc12 [Example 21]
**A:** -0.35

Source of measurements: patent US10227331B2
